Provenance of the data: the supplement of paper PMC10567573

- test.details: protein stability index of a GFP-peptide fusion (GPS, HEK-293T) (PSI 1-6); higher = more stable;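 note: 24-mer peptide tiles fused after GFP, lentivirally expressed, FACS-sorted into six equal bins by GFP/DsRed ratio, decoded by Illumina sequencing, PSI is the read-weighted mean bin number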
- setup.conditions: treatment: DMSO; c terminus: a fixed tail appended
quantity.measured: protein stability index
Reply: number alone, nothing else.

| macromolecule.sequence | value |
| --- | --- |
| IQDGTIHLYIYSIHSIPKGTEITI [KMT2E] | 2.48 |
| QEIEDKMKGFSFKEDTLLLIAEVM [C8orf76] | 2.54 |
| ACGVILYILLVGYPPFWDEDQHRL [CAMK2D] | 2.6 |
| IGDSRPPSFHPHAGGGSQENLDND [DVL3] | 5.56 |
| DFLAEKESLTEDEATQFLKQILDG [DAPK3] | 4.4 |
| LRLLVESDINSIRRILDELTLCKS [KRT34] | 2.22 |

Can you share its protein stability index? I mean this sequence: DILVLLGASLYAISNVCEEYIVKK [SLC35F2]
3.41

Ok, now PASQAASSSSASADLLAGFGGSFM [SNAP91]
3.89

Ok, now RTPLMYCVLADRLDCADALLKAGA [INVS]
2.16

Ok, now ASLNGYRLGERVLQVSFKTSKQHK [ELAVL3]
3.45

Ok, now SFTSSDKTIKSFFPHSGKDCLLCF [C8orf76]
2.47

Ok, now KIQLSDSEAKSHSSADDASAWSNI [FAN1]
4.76

Ok, now DYLSGVLILASELSRLSVNSVTAG [TSN]
3.54

* * *

- test.details: protein stability index of a GFP-peptide fusion (GPS, HEK-293T) (PSI 1-6); higher = more stable
- setup.conditions: treatment: DMSO; c terminus: a fixed tail appended
quantity.measured: protein stability index
Reply: number alone, nothing else.

// known answers, use as guide
| macromolecule.sequence | protein stability index |
| --- | --- |
| DFYEAMDDYTSAIEVQPNFEVPYY [TTC32] | 2.64 |
| QMQDDEQKTRLLEDSVSRLEKEIE [PALM] | 5.11 |
| VCEVQVHGGSLLGKKYNWSCDDLM [GFOD1] | 2.58 |

Can you share its protein stability index? I mean this sequence: KLPLPVTIKSHLKSFSMANGMNAV [RAB40C]
2.36

Ok, now FTGNFFYNYMMGIEFNPRIGKWFD [DHCR7]
2.59

Ok, now ASSGGAGAAVGTGSSYPTTTISYL [JUNB]
2.8

Ok, now LLQNEFVGFMWRQRGRVISLWERL [MCOLN1]
2.7

Ok, now FQEAMTHLQHKLICTRKPEEIRGG [TENT5D]
3.05

* * *

- test.details: protein stability index of a GFP-peptide fusion (GPS, HEK-293T) (PSI 1-6); higher = more stable
- setup.conditions: treatment: DMSO; c terminus: a fixed tail appended
quantity.measured: protein stability index
Reply: number alone, nothing else.

| macromolecule.sequence | protein stability index |
| --- | --- |
| LESRQRSLEQANRSLQLRIQELEL [TFE3] | 3.97 |
| PARTVLVGSLSWLRKQLQPTHCKY | 2.38 |

Now, please, on to the next sequence.
Can you share its protein stability index? I mean this sequence: CWKMLSPGFDSSVYSDLCEAAEAV [ADAMTSL2]
2.69

* * *

- test.details: protein stability index of a GFP-peptide fusion (GPS, HEK-293T) (PSI 1-6); higher = more stable
- setup.conditions: treatment: MLN4924 1 uM, 8 h; c terminus: a fixed tail appended
# protein stability index per entry
Reply: number alone, nothing else.

// known answers, use as guide
| macromolecule.sequence | quantity.measured | value |
| --- | --- | --- |
| APYFERSSSKRYTMSRSLDGASVN [EPB41L3] | protein stability index | 3.44 |
| STSGQPYPTSDQEGDPGSKQPRKK [LCOR] | protein stability index | 5.42 |
| QMQDDEQKTRLLEDSVSRLEKEIE [PALM] | protein stability index | 4.97 |

Can you share its protein stability index? I mean this sequence: AQRQACMYASSAPPSEPVPSLEDI [TBX5]
4.96

Ok, now KYPSHSFIGEESVAAGEKSILTDN [IMPA1]
4.75

Ok, now DETLRSGELLNMIVAVIDSAQLQE [INTS3]
3.06

Ok, now TPATPATLSASSSAGGSRTPAMSS [TFE3]
4.95

Ok, now CCQWLKPKMRSKEQILELLVLEQF [ZNF449]
2.46

Ok, now GATAASETLSGHGPLAQPLTLQVL [ADAMTS4]
3.19

Ok, now PTARHFQEHPRQQLATSSFLLFLL [MOSPD3]
2.23

* * *

- test.details: protein stability index of a GFP-peptide fusion (GPS, HEK-293T) (PSI 1-6); higher = more stable
- setup.conditions: treatment: DMSO; c terminus: a fixed tail appended
Binned protein stability index; ranges: low class (below 3), middle class (3 to below 4), high class (4 or more)

| macromolecule.sequence | group |
| --- | --- |
| MAHGYGEESEEERGLEPGKGRHHR [CHGB] | high class |
| AGEFTGWEKVGSGGFGQVYKVRHV [RIPK4] | low class |
| AGEVVCEAIKNEMNVMLKSSPVDL [IMPA1] | middle class |
| ECGKAFSRSSILVQHQRVHTGEKP [ZNF24] | middle class |

Which protein stability index band matches ARGGAVSARYVLPDEAARARLLQE [DUSP5] ?
high class

Ok, now VDGRLTYPTCGIGYPVSSAFAFQN [SASS6]
low class

Ok, now SDVIEYAKQKLDFFIRTSDSFDKF [PCMTD2]
low class

Ok, now PQALATRALPCPAHVVFRYQGVRM [FCHSD1]
low class

* * *

- test.details: protein stability index of a GFP-peptide fusion (GPS, HEK-293T) (PSI 1-6); higher = more stable
- setup.conditions: treatment: DMSO; c terminus: a fixed tail appended
quantity.measured: protein stability index
Reply: number alone, nothing else.

// known answers, use as guide
| macromolecule.sequence | value |
| --- | --- |
| GLAKEYIDPETKKHIPYREHKSLT [CSNK1G3] | 4.21 |
| QTYFRQNRDEVLDNLLAFVCDIRP [ATP6V1G1] | 2.64 |
| FSSSSQEAFAASAVGSGERRGGGP [ZBTB22] | 3.66 |

Can you share its protein stability index? I mean this sequence: QQYRQDQRDGSKSEDELDQASTPT [CCND2]
5.45

Ok, now VVLGNIIKKKGWRRSSLVITTKIF [KCNAB2]
2.86

Ok, now PPPNRMYPPPPPALPSSAPSGPPP [WASL]
5.01

Ok, now QRLEEQERRHREEKERRKKQQWEI [RSPH3]
4.45

Ok, now RPFWEEEKTFWKEEKSFWEMEKSF [CCDC70]
2.71

Ok, now MSSVQQQPPPPRRVTNVGSLLLTP [WASL]
3.7

Ok, now RMLIHKTEDVNTLDSEKRTPLHVA [ANKRD44]
4.06

Ok, now ALSEQKAQDLGELLATAEQEQLSL [LRRC45]
5.07

Ok, now GIEEVTYENCLQALADVEVKYIVE [NLN]
3.29

Ok, now GCFLLILGQIVLLPAEARERSRGR [MATN2]
1.97

* * *

- test.details: protein stability index of a GFP-peptide fusion (GPS, HEK-293T) (PSI 1-6); higher = more stable
- setup.conditions: treatment: MLN4924 1 uM, 8 h; c terminus: a fixed tail appended
# protein stability index per entry
Reply: number alone, nothing else.

// known answers, use as guide
| macromolecule.sequence | protein stability index |
| --- | --- |
| CGNIKAPSLQAWNDAPCDKTFLFI [CD207] | 2.49 |
| EGAIVMARGRHVGSSETNLLQHLL [PYCR3] | 3.18 |
| KETEERTDGERVAEVAPEERENVA [SDE2] | 5.33 |
| APVSRGRDSYGGPPRREPLPSRRD [RBMX] | 4.93 |
| GNSSGSDVTSLSSQLPDTPNSMVP [ISL2] | 4.9 |

Can you share its protein stability index? I mean this sequence: HQAQLISKIPHILKEMYDADLLEE [EIF5]
3.27

Ok, now QMPTEIEFPESRKPISTKSQFLKH [ZNF649]
4.26

Ok, now KSPSSPQAAFTQQGMEGIKVFLHE [TBX5]
3.68

Ok, now KGKKLYPVVSAVWGHCEIRMRYLN [SPSB1]
2.26

Ok, now GYSPNGRDANGWTLLHFSAARGKE [ASB7]
2.94

Ok, now LALYVLFLADEEFDVVVCDQVSAC [ALG2]
2.59

Ok, now PGAGSRRRGRMALCGQAAGAASLP [FBXO33]
2.97

Ok, now PGMPPPVPRPGIPPMTQAQAVSAP [ZNF207]
4.86
